I'd be grateful if you could share measured pest or weed control at 125 g/ha for these entries.
# Tested on: Galium (catchweed bedstraw, Galium aparine)
# Test: Test A postemergence
# Assay type: in vivo
# Test settings: Galium, post-emergence, 240 h, 125 g ai/ha, Postemergence; visual injury after approximately 10 d; 0 to 100 scale where 0 is no effect and 100 is complete control; read-out: Plant response rating, Galium
Kindly provide the numeric value in % only, without the unit symbol.

Task: What pest or weed control at 125 g/ha value was documented for this compound, CC(C)Oc1ccc([C@H]2CN(C)C(=O)[C@@H]2C(=O)Nc2ccccc2F)cc1 ?
Output: 0

Task: What pest or weed control at 125 g/ha value was documented for this compound, COc1ccc([C@H]2CN(C)C(=O)[C@@H]2C(=O)Nc2cccc(F)c2F)cc1F ?
Output: 50

Task: What pest or weed control at 125 g/ha value was documented for this compound, O=C1NC[C@H](c2cccc(C(F)(F)F)n2)[C@H]1C(=O)Nc1ccccc1F ?
Output: 0

Task: What pest or weed control at 125 g/ha value was documented for this compound, CCOc1cc([C@H]2CN(C)C(=O)[C@@H]2C(=O)Nc2cccc(F)c2F)cc(C(F)(F)F)c1 ?
Output: 40

Task: What pest or weed control at 125 g/ha value was documented for this compound, O=C(Nc1ccc(F)c(F)c1F)[C@H]1C(=O)N(C2CC2)CC[C@@H]1c1ccc(F)cc1 ?
Output: 0

Task: What pest or weed control at 125 g/ha value was documented for this compound, CN1CC[C@H](c2ccccc2C(F)(F)F)[C@@H](C(=O)Nc2ccc(F)c(F)c2F)C1=O ?
Output: 0

Task: What pest or weed control at 125 g/ha value was documented for this compound, CN1C[C@H](c2cc(F)cc(F)c2)[C@@H](C(=O)Nc2ccc(C(F)(F)F)cc2)C1=O ?
Output: 0

Task: What pest or weed control at 125 g/ha value was documented for this compound, CN1CC[C@H](c2ccc(OC(F)(F)F)cc2)[C@@H](C(=O)Nc2ccccc2C(F)(F)F)C1=O ?
Output: 0

Task: What pest or weed control at 125 g/ha value was documented for this compound, CN1C[C@H](c2cc(F)cc(C(F)(F)F)c2)[C@@H](C(=O)Nc2cccc(Cl)c2F)C1=O ?
Output: 40

Task: What pest or weed control at 125 g/ha value was documented for this compound, O=C1NC[C@H](c2cc(C(F)(F)F)ccn2)[C@H]1C(=O)Nc1ccccc1F ?
Output: 0

Task: What pest or weed control at 125 g/ha value was documented for this compound, CN1CC[C@H](c2ccc(OC(F)(F)F)cc2)[C@@H](C(=O)Nc2cccc(F)c2F)C1=O ?
Output: 0

Task: What pest or weed control at 125 g/ha value was documented for this compound, O=C(Nc1cccc(Cl)c1F)[C@H]1C(=O)N(C2CC2)CC[C@@H]1c1ccc(F)cc1 ?
Output: 0

Task: What pest or weed control at 125 g/ha value was documented for this compound, CCOc1cccc([C@H]2CN(C)C(=O)[C@@H]2C(=O)Nc2cccc(F)c2F)c1 ?
Output: 40

###

# Test system: barnyardgrass (Echinochloa crus-galli)
# Test: Test G Pre-Emergence Protocol
# Format: in vivo
# Test settings: Echinochloa crus-galli, pre-emergence, 312 h, 15.625 g ai/ha, evaluated after 13 days, read-out: Barnyard grass damage rating (100=total damage to plant; 0=no damage to plant)
I'd be grateful if you could share measured pest or weed control at 15.625 g/ha for these entries.
Kindly provide the numeric value in % only, without the unit symbol.

Task: Under barnyardgrass (Echinochloa crus-galli): pest or weed control at 15.625 g/ha value of COc1c(Cl)ccc([C@H]2CN(C)C(=O)[C@@H]2C(=O)Nc2cccc(F)n2)c1F (racemic) [Compound 1477] ?
Output: 50

Task: Under barnyardgrass (Echinochloa crus-galli): pest or weed control at 15.625 g/ha value of CN1C[C@@H](c2ccc(C(F)(F)F)cc2)[C@H](C(=O)Nc2ccc(F)nc2)C1=O (racemic) [Compound 1555] ?
Output: 0

Task: Under barnyardgrass (Echinochloa crus-galli): pest or weed control at 15.625 g/ha value of Cc1cc(C(F)(F)F)ccc1NC(=O)[C@H]1C(=O)N(C)C[C@@H]1c1ccc(C(F)(F)F)cc1 (racemic) [Compound 1411] ?
Output: 0

Task: Under barnyardgrass (Echinochloa crus-galli): pest or weed control at 15.625 g/ha value of CN1C[C@@H](c2ccc(C(F)(F)F)cc2)[C@H](C(=O)Nc2nnc(C(F)(F)F)[nH]2)C1=O (racemic) [Compound 1550] ?
Output: 0

Task: Under barnyardgrass (Echinochloa crus-galli): pest or weed control at 15.625 g/ha value of C=CCc1ccc(Cl)cc1NC(=O)[C@H]1C(=O)N(C)C[C@@H]1c1ccc(C(F)(F)F)cc1 (racemic) [Compound 1441] ?
Output: 0

###

# System: giant foxtail (Setaria faberi)
# Test: Test G Pre-Emergence Protocol
# Assay type: in vivo
# Test settings: Setaria faberi, pre-emergence, 312 h, 250 g ai/ha, evaluated after 13 days, read-out: Foxtail, Giant damage rating (100=total damage to plant; 0=no damage to plant)
# Excerpt: Seeds of corn (Zea mays), giant foxtail (Setaria faberi), barnyardgrass (Echinochloa crus-galli), ivy-leaved morning glory (Ipomoea hederacea), redroot pigweed (Amaranthus retroflexus) and velvetleaf (Abutilon theophrasti) were sown in standard soil in pots. […]
Readout: pest or weed control at 250 g/ha (%)
Kindly provide the numeric value in % only, without the unit symbol.

Task: Under giant foxtail (Setaria faberi): pest or weed control at 250 g/ha value of Cc1c(F)cccc1NC(=O)[C@@H]1C(=O)N(C)C[C@H]1c1cccc(C(C)(C)F)c1 (racemic) ?
Output: 90

Task: Under giant foxtail (Setaria faberi): pest or weed control at 250 g/ha value of CC(O)c1ccccc1NC(=O)[C@H]1C(=O)N(C)C[C@@H]1c1cccc(C(F)(F)F)c1 (mixture of isomers) ?
Output: 90

Task: Under giant foxtail (Setaria faberi): pest or weed control at 250 g/ha value of CN1C[C@@H](c2ccc(C(F)(F)F)cc2)[C@H](C(=O)Nc2nnc(C(F)(F)F)[nH]2)C1=O (racemic) ?
Output: 0

Task: Under giant foxtail (Setaria faberi): pest or weed control at 250 g/ha value of Cc1ccc(C2CN(C)C(=O)C2C(=O)Nc2cccc(F)c2F)cc1[N+](=O)[O-] (centres unmarked) ?
Output: 90

Task: Under giant foxtail (Setaria faberi): pest or weed control at 250 g/ha value of CN1C[C@H](c2ccc(C(F)(F)F)cc2)[C@@H](C(=O)Nc2cnccc2O)C1=O (racemic) ?
Output: 0

Task: Under giant foxtail (Setaria faberi): pest or weed control at 250 g/ha value of CN1C[C@H](c2ccc(C(F)(F)F)cc2)[C@@H](C(=O)Nc2cccc3nsnc23)C1=O (racemic) ?
Output: 80

Task: Under giant foxtail (Setaria faberi): pest or weed control at 250 g/ha value of Cc1cc(C2CN(C)C(=O)C2C(=O)Nc2cccc(F)c2F)cc(Cl)c1F (centres unmarked) ?
Output: 90

Task: Under giant foxtail (Setaria faberi): pest or weed control at 250 g/ha value of CN1C[C@@H](c2cccc(Oc3ccc(F)cc3)c2)[C@H](C(=O)Nc2cccc(F)n2)C1=O (racemic) ?
Output: 90

Task: Under giant foxtail (Setaria faberi): pest or weed control at 250 g/ha value of COc1c(Cl)ccc([C@H]2CN(C)C(=O)[C@@H]2C(=O)Nc2cccc(F)c2F)c1F ?
Output: 90

Task: Under giant foxtail (Setaria faberi): pest or weed control at 250 g/ha value of CN1C[C@@H](c2ccc(C(F)(F)F)cc2)[C@H](C(=O)Nc2ncc(Cl)s2)C1=O (racemic) ?
Output: 0

Task: Under giant foxtail (Setaria faberi): pest or weed control at 250 g/ha value of CCCOc1cc(C2CN(C)C(=O)C2C(=O)Nc2cccc(F)c2F)cc(C(F)(F)F)c1 (centres unmarked) ?
Output: 80

Task: Under giant foxtail (Setaria faberi): pest or weed control at 250 g/ha value of CN1C[C@H](c2ccc(C(F)(F)F)cc2)[C@@H](C(=O)Nc2ccc[n+]([O-])c2C(F)(F)F)C1=O (racemic) ?
Output: 90

Task: Under giant foxtail (Setaria faberi): pest or weed control at 250 g/ha value of COc1cncc(NC(=O)[C@@H]2C(=O)N(C)C[C@H]2c2ccc(C(F)(F)F)cc2)n1 (racemic) ?
Output: 60

Task: Under giant foxtail (Setaria faberi): pest or weed control at 250 g/ha value of Cc1nccc(NC(=O)[C@@H]2C(=O)N(C)C[C@H]2c2ccc(C(F)(F)F)cc2)c1C (racemic) ?
Output: 0

###

I'd be grateful if you could share measured pest or weed control at 62.5 g/ha for these entries.
# System: barnyardgrass (Echinochloa crus-galli)
# Test: Test G Post-Emergence Protocol
# Type: in vivo
# Test settings: Echinochloa crus-galli, post-emergence, 312 h, 62.5 g ai/ha, evaluated after 13 days, 100=total damage to plant, 0=no damage to plant, read-out: Barnyardgrass damage rating
Kindly provide the numeric value in % only, without the unit symbol.

Task: What pest or weed control at 62.5 g/ha value was documented for this compound, CN1C[C@H](c2ccc(C(F)(F)F)cc2)[C@@H](C(=O)Nc2cncnc2Cl)C1=O (racemic) ?
Output: 0

Task: What pest or weed control at 62.5 g/ha value was documented for this compound, COc1cc(C)cc([C@@H]2CN(C)C(=O)[C@H]2C(=O)Nc2cccc(F)c2C)c1 (racemic) ?
Output: 80

Task: What pest or weed control at 62.5 g/ha value was documented for this compound, CCCOc1cc(C2CN(C)C(=O)C2C(=O)Nc2cccc(F)c2F)cc(C(F)(F)F)c1 (stereo not shown) ?
Output: 30

Task: What pest or weed control at 62.5 g/ha value was documented for this compound, CN1C[C@H](c2cc(F)cc(F)c2)[C@@H](C(=O)Nc2cnccc2C(F)(F)F)C1=O (racemic) ?
Output: 0

Task: What pest or weed control at 62.5 g/ha value was documented for this compound, CN1CCCC(NC(=O)[C@H]2C(=O)N(C)C[C@@H]2c2ccc(C(F)(F)F)cc2)C1=O (mixture of isomers) ?
Output: 0

Task: What pest or weed control at 62.5 g/ha value was documented for this compound, CN1C[C@@H](c2cc(Br)cc(Oc3ccccc3)c2)[C@H](C(=O)Nc2cccc(F)c2F)C1=O (racemic) ?
Output: 0

Task: What pest or weed control at 62.5 g/ha value was documented for this compound, CN1C[C@H](c2ccc(C(F)(F)F)cc2)[C@@H](C(=O)Nc2ccc(C(F)(F)F)cn2)C1=O (racemic) ?
Output: 0
